Would you mind telling me the reported CC50 of each entry?
- Test system: Raji (Burkitt lymphoma) cells
- test_name: Cell viability (CellTiter-Glo), Raji
- Type: cell-based
- details: Homo sapiens, 72 h, cellular ATP, read-out: Raji LC50
Express your answer in µM, writing the number without its unit.

Return reported CC50; argument: NC(=O)CCNC(=O)C(Cc1c(O)ccc2cc(Br)ccc12)C(=O)c1ccc(Cl)cc1 (centres unmarked)
19.9

Need CC50, item NC(=O)CCNC(=O)C(Cc1c(O)ccc2cc(Br)ccc12)C(=O)c1ccc(Br)cc1 (centres unmarked)
16.7

Suppose we examine the compound NC(=O)C(Cc1c(O)ccc2cc(Br)ccc12)C(=O)c1ccc(Br)cc1 (centres unmarked) ; what CC50 value has been reported?
7.8

What value of CC50 has been reported for the following compound? NC(=O)CCNC(=O)C(Cc1c(O)ccc2cc(Br)ccc12)C(=O)c1ccc(C(F)(F)F)cc1 (centres unmarked)
19.4

What does the record list as CC50 for O=C(NCCO)C(Cc1c(O)ccc2cc(Br)ccc12)C(=O)c1ccc(C(F)(F)F)cc1 (centres unmarked) ?
16.5

Requested read-out: CC50. Entry: O=C(NCCO)C(Cc1c(O)ccc2cc(Br)ccc12)C(=O)c1ccc(Br)cc1 (centres unmarked)
10

Which measured CC50 value corresponds to NC(=O)CCNC(=O)C(Cc1c(O)ccc2cc(Br)ccc12)C(=O)c1cccc(Br)c1 (centres unmarked) ?
19.4

Entry under review: NC(=O)C(Cc1c(O)ccc2cc(Br)ccc12)C(=O)c1ccc(Cl)cc1 (centres unmarked) . Reported CC50?
7.3

====

- test_system: SIRT1 (Homo sapiens)
- Sequence (Q96EB6 whole entry): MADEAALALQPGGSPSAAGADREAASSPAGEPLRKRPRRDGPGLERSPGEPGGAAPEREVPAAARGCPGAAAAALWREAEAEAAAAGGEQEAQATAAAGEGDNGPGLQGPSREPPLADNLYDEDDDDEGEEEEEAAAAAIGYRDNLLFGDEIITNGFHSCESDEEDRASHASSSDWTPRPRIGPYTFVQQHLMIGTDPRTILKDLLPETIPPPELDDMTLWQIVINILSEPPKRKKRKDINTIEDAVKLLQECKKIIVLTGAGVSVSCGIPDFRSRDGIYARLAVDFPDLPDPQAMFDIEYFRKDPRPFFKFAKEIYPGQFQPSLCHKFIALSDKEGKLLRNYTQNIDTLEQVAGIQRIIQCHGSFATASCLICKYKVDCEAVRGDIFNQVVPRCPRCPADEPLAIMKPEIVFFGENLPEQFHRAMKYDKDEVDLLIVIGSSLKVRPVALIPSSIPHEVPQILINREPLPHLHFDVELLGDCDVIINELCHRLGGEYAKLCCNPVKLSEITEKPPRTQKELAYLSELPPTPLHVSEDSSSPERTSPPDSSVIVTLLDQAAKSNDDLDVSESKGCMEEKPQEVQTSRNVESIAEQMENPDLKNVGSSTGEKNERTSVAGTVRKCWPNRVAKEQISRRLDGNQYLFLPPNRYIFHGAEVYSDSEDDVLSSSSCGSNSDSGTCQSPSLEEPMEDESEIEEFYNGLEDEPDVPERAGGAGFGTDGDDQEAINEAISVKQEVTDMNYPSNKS
- test_name: SIRT-Glo enzyme inhibition assay, SIRT1
pIC50: −log10 of the molar value.
measured_quantity: pIC50

Notebook: pull reported pIC50 for SIRT1 (Homo sapiens), entry Cc1ccc(C(=O)C(Cc2c(O)ccc3cc(Br)ccc23)C(N)=O)cc1 (stereo not shown) [Compound 4]
< 3.70

====

- test_system: SIRT1 (Homo sapiens)
- test_name: SIRT-Glo enzyme inhibition assay, SIRT1
- details: read-out: SIRT1 percentage inhibition at 50 µM compound, 50 µM compound
measured_quantity: inhibition at 50 µM

# lookup: inhibition at 50 µM of NC(=O)C(Cc1c(O)ccc2cc(Br)ccc12)C(=O)c1ccccc1 (centres unmarked)
0%

Quick one: inhibition at 50 µM for NC(=O)C(Cc1c(O)ccc2cc(Br)ccc12)C(=O)c1cccc(Br)c1 (centres unmarked) ?
53%

I would be grateful if you could share the reported inhibition at 50 µM for O=C(NCCO)C(Cc1c(O)ccc2cc(Br)ccc12)C(=O)c1cccc(Br)c1 (centres unmarked) .
0%

Give the measured inhibition at 50 µM of O=C(NCCO)C(Cc1c(O)ccc2cc(Br)ccc12)C(=O)c1ccc(Br)cc1 (centres unmarked) .
18%

Using the record for NC(=O)C(Cc1c(O)ccc2cc(Br)ccc12)C(=O)c1cccc(C(F)(F)F)c1 (centres unmarked) , report its inhibition at 50 µM.
0%

What value of inhibition at 50 µM has been recorded for this entry: NC(=O)CCNC(=O)C(Cc1c(O)ccc2cc(Br)ccc12)C(=O)c1ccc(Cl)cc1 (centres unmarked)
4%

Please give the measured inhibition at 50 µM for this molecule: NC(=O)C(Cc1c(O)c(Br)cc2ccccc12)C(=O)c1cccc(Br)c1 (centres unmarked)
0%

Please look up its inhibition at 50 µM: CN1CCN(C(=O)C(Cc2c(O)ccc3cc(Br)ccc23)C(=O)c2ccc(C(F)(F)F)cc2)CC1 (centres unmarked)
10%

Could you share which inhibition at 50 µM value was measured for O=C(NCCCO)C(Cc1c(O)ccc2cc(Br)ccc12)C(=O)c1cccc(Br)c1 (centres unmarked) ?
28%

Tell me the measured inhibition at 50 µM of COc1ccc2c(CC(C(N)=O)C(=O)c3cccc(Br)c3)c(O)ccc2c1 (centres unmarked) , please.
0%

What value of measured inhibition at 50 µM is listed for NC(=O)CCNC(=O)C(Cc1c(O)ccc2cc(Br)ccc12)C(=O)c1cccc(Br)c1 (centres unmarked) ?
0%

Recorded inhibition at 50 µM for Cc1ccccc1C(=O)C(Cc1c(O)ccc2cc(Br)ccc12)C(N)=O (centres unmarked) , please?
0%

Could you share which inhibition at 50 µM value was measured for COCCNC(=O)C(Cc1c(O)ccc2cc(Br)ccc12)C(=O)c1cccc(Br)c1 (centres unmarked) ?
0%

Consider the molecule NC(=O)CCNC(=O)C(Cc1c(O)ccc2cc(Br)ccc12)C(=O)c1cccc(C(F)(F)F)c1 (centres unmarked) and give its measured inhibition at 50 µM.
8%

Would you kindly share the measured inhibition at 50 µM for Cc1cccc(C(=O)C(Cc2c(O)ccc3cc(Br)ccc23)C(N)=O)c1 (centres unmarked) ?
38%

Name the recorded inhibition at 50 µM for NC(=O)CCNC(=O)C(Cc1c(O)ccc2cc(Br)ccc12)C(=O)c1ccc(C(F)(F)F)cc1 (centres unmarked) .
0%

Look up inhibition at 50 µM: CNC(=O)CCNC(=O)C(Cc1c(O)ccc2cc(Br)ccc12)C(=O)c1ccc(Cl)cc1 (centres unmarked)
12%

====

- test_system: SIRT2 (Homo sapiens)
- Sequence (Q8IXJ6 whole entry): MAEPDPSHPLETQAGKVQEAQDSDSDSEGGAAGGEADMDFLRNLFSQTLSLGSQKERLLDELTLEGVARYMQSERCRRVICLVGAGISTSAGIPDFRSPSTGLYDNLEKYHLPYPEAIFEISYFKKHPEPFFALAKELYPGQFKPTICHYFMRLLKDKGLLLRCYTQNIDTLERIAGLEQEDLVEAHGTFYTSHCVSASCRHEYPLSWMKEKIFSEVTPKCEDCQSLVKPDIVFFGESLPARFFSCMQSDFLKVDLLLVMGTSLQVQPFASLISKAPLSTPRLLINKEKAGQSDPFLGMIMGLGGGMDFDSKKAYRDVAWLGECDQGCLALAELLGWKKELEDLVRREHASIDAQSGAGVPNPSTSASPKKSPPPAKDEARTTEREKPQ
- test_name: SIRT-Glo enzyme inhibition assay, SIRT2
- details: SIRT2 IC50
measured_quantity: log10 IC50 (log10 of the value in nM)
A difference of one corresponds to tenfold IC50; all values are log10 with IC50 in nM.

Dear colleague, I am looking for the recorded log10 IC50 of the following molecule: CNC(=O)CCNC(=O)C(Cc1c(O)ccc2cc(Br)ccc12)C(=O)c1ccc(C(F)(F)F)cc1 (stereo not shown)
2.40

Bench note: what log10 IC50 did NC(=O)CCNC(=O)C(Cc1c(O)ccc2cc(Br)ccc12)C(=O)c1ccc(Br)cc1 (stereo not shown) show?
2.76

Data request, read-out log10 IC50, for Cc1ccc(C(=O)C(Cc2c(O)ccc3cc(Br)ccc23)C(N)=O)cc1 (stereo not shown)
4.11

Given the molecule NC(=O)C(Cc1c(O)ccc2cc(Br)ccc12)C(=O)c1ccc(F)cc1 (stereo not shown) , what is its reported log10 IC50?
4.09

Reported log10 IC50 for O=C(NCCCO)C(Cc1c(O)ccc2cc(Br)ccc12)C(=O)c1cccc(Br)c1 (stereo not shown) : what is it?
3.88

// log10 IC50 lookup, key: O=C(NCCO)C(Cc1c(O)ccc2cc(Br)ccc12)C(=O)c1ccc(Br)cc1 (stereo not shown)
2.72

Item under review: NC(=O)C(Cc1c(O)ccc2cc(Br)ccc12)C(=O)c1ccc(Br)cc1 (stereo not shown) . Reported log10 IC50?
3.40

# get_value(readout='log10 IC50', item= CNC(=O)CCNC(=O)C(Cc1c(O)ccc2cc(Br)ccc12)C(=O)c1cccc(Br)c1 (stereo not shown) )
3.81

Endpoint output: log10 IC50 of O=C(NCCO)C(Cc1c(O)ccc2cc(Br)ccc12)C(=O)c1cccc(Br)c1 (stereo not shown) . Value?
3.68

So what does the record say about log10 IC50 for O=C(NCCO)C(Cc1c(O)ccc2cc(Br)ccc12)C(=O)c1ccc(Cl)cc1 (stereo not shown) ?
2.98

Item CNC(=O)C(Cc1c(O)ccc2cc(Br)ccc12)C(=O)c1ccc(Br)cc1 (stereo not shown) has what recorded log10 IC50?
2.89

// log10 IC50 lookup, key: NC(=O)CCNC(=O)C(Cc1c(O)ccc2cc(Br)ccc12)C(=O)c1ccc(C(F)(F)F)cc1 (stereo not shown)
2.81

Can you look up the measured log10 IC50 of NC(=O)CCNC(=O)C(Cc1c(O)ccc2cc(Br)ccc12)C(=O)c1cccc(Br)c1 (stereo not shown) for me?
2.98

====

Please go through the items and note down their CC50.
- Tested on: OCI-Ly8-LAM-53 (OCI, DLBCL) cells
- test_name: Cell viability (CellTiter-Glo), OCI
- Assay type: cell-based
- details: 72 h, cellular ATP; read-out: OCI LC50
Respond with the bare value in µM.

Identify the measured CC50 of CNC(=O)C(Cc1c(O)ccc2cc(Br)ccc12)C(=O)c1ccc(Br)cc1 (stereo not shown) for OCI-Ly8-LAM-53 (OCI, DLBCL) cells.
5.7

Find CC50 (OCI-Ly8-LAM-53 (OCI, DLBCL) cells) for the entry O=C(NCCO)C(Cc1c(O)ccc2cc(Br)ccc12)C(=O)c1ccc(Cl)cc1 (stereo not shown)
9.7

Fill in the recorded CC50 for this molecule, with OCI-Ly8-LAM-53 (OCI, DLBCL) cells as test system: NC(=O)CCNC(=O)C(Cc1c(O)ccc2cc(Br)ccc12)C(=O)c1ccc(C(F)(F)F)cc1 (stereo not shown)
25.5

Form entry - test system: OCI-Ly8-LAM-53 (OCI, DLBCL) cells; read-out: CC50; molecule: NC(=O)C(Cc1c(O)ccc2cc(Br)ccc12)C(=O)c1ccc(Br)cc1 (stereo not shown)
1.6

Request body: readout CC50, system OCI-Ly8-LAM-53 (OCI, DLBCL) cells, query CNC(=O)C(Cc1c(O)ccc2cc(Br)ccc12)C(=O)c1ccc(C(F)(F)F)cc1 (stereo not shown) . Return the value.
16.4

# returns recorded CC50 (system: OCI-Ly8-LAM-53 (OCI, DLBCL) cells) for O=C(NCCO)C(Cc1c(O)ccc2cc(Br)ccc12)C(=O)c1ccc(C(F)(F)F)cc1 (stereo not shown)
13.1

Find CC50 (OCI-Ly8-LAM-53 (OCI, DLBCL) cells) for the entry CNC(=O)CCNC(=O)C(Cc1c(O)ccc2cc(Br)ccc12)C(=O)c1ccc(C(F)(F)F)cc1 (stereo not shown)
24.9

Lab note: need CC50 with OCI-Ly8-LAM-53 (OCI, DLBCL) cells for entry N#C/C(=C\c1ccc(-c2cc(Cl)ccc2Cl)o1)C(=O)Nc1cccc2ncccc12 [AGK2, reference compound] , please look it up.
73.2

CC50 of O=C(NCCO)C(Cc1c(O)ccc2cc(Br)ccc12)C(=O)c1ccc(Br)cc1 (stereo not shown) on OCI-Ly8-LAM-53 (OCI, DLBCL) cells?
5

Find CC50 (OCI-Ly8-LAM-53 (OCI, DLBCL) cells) for the entry NC(=O)C(Cc1c(O)ccc2cc(Br)ccc12)C(=O)c1ccc(Cl)cc1 (stereo not shown)
8.2

Param readout= CC50; system= OCI-Ly8-LAM-53 (OCI, DLBCL) cells; entry= NC(=O)CCNC(=O)C(Cc1c(O)ccc2cc(Br)ccc12)C(=O)c1ccc(Cl)cc1 (stereo not shown) ; returns value.
11.7

API: value(readout=CC50, system=OCI-Ly8-LAM-53 (OCI, DLBCL) cells) for record CNC(=O)CCNC(=O)C(Cc1c(O)ccc2cc(Br)ccc12)C(=O)c1ccc(Cl)cc1 (stereo not shown)
11.2

Which CC50 is reported with OCI-Ly8-LAM-53 (OCI, DLBCL) cells for this entry: NC(=O)CCNC(=O)C(Cc1c(O)ccc2cc(Br)ccc12)C(=O)c1ccc(Br)cc1 (stereo not shown) ?
10.2
